// data source = ChEMBL document CHEMBL2157989

procedure summary: Solubility of the compound in 5% DMA and 95% buffer at pH 7 at 1.5 mg sonicated for 45 mins followed by centrifugation for 45 mins by UV/Vis spectroscopy
Assay type: physicochemical
endpoint name: solubility at 0.75 h (µM)

INPUT: Fill blank: measured solubility at 0.75 h of the compound CSSCCC(=O)Nc1ccc2[nH]c(C(=O)Nc3ccc4[nH]c(C(=O)N5C[C@@H](CCl)c6c5cc(OP(=O)(O)O)c5ccccc65)cc4c3)cc2c1 is ____.
OUTPUT: 3000

INPUT: Follow-up item: CSSC(C)(C)CCC(=O)Nc1ccc2[nH]c(C(=O)Nc3ccc4[nH]c(C(=O)N5C[C@@H](CCl)c6c5cc(OP(=O)(O)O)c5ccccc65)cc4c3)cc2c1
OUTPUT: 2900

====

procedure summary: Solubility in water containing 5% DMA at 1.5 mg sonicated for 45 mins followed by centrifugation for 45 mins by UV/Vis spectroscopy
Format: physicochemical
test conditions: 0.75 h
endpoint name: solubility

INPUT: Fill in: solubility of CC(C)(S)CCC(=O)Nc1ccc2[nH]c(C(=O)Nc3ccc4[nH]c(C(=O)N5C[C@@H](CCl)c6c5cc(OP(=O)(O)O)c5ccccc65)cc4c3)cc2c1 is ___
OUTPUT: soluble

INPUT: Check O=C(CCS)Nc1ccc2[nH]c(C(=O)Nc3ccc4[nH]c(C(=O)N5C[C@@H](CCl)c6c5cc(OP(=O)(O)O)c5ccccc65)cc4c3)cc2c1 too.
OUTPUT: soluble

INPUT: Now give it for CSSC(C)(C)CCC(=O)Nc1ccc2[nH]c(C(=O)Nc3ccc4[nH]c(C(=O)N5C[C@@H](CCl)c6c5cc(OP(=O)(O)O)c5ccccc65)cc4c3)cc2c1 too.
OUTPUT: soluble

INPUT: Then this compound: CSSCCC(=O)Nc1ccc2[nH]c(C(=O)Nc3ccc4[nH]c(C(=O)N5C[C@@H](CCl)c6c5cc(OP(=O)(O)O)c5ccccc65)cc4c3)cc2c1
OUTPUT: soluble

====

procedure summary: Solubility of the compound in 20% DMA and 80% buffer at pH 7 at 1.5 mg sonicated for 45 mins followed by centrifugation for 45 mins by UV/Vis spectroscopy
Type: physicochemical
endpoint name: solubility at 0.75 h (µM)

INPUT: Need solubility at 0.75 h of CSSC(C)(C)CCC(=O)Nc1ccc2[nH]c(C(=O)Nc3ccc4[nH]c(C(=O)N5C[C@@H](CCl)c6c5cc(O)c5ccccc65)cc4c3)cc2c1 , thanks.
OUTPUT: 3

INPUT: And then CSSCCC(=O)Nc1ccc2[nH]c(C(=O)Nc3ccc4[nH]c(C(=O)N5C[C@@H](CCl)c6c5cc(O)c5ccccc65)cc4c3)cc2c1 , what is it?
OUTPUT: 3

====

procedure summary: Solubility in dichloromethane at 1.5 mg sonicated for 45 mins followed by centrifugation for 45 mins by UV/Vis spectroscopy
Assay type: physicochemical
test conditions: 0.75 h
endpoint name: solubility

INPUT: What measured solubility goes with CSSC(C)(C)CCC(=O)Nc1ccc2[nH]c(C(=O)Nc3ccc4[nH]c(C(=O)N5C[C@@H](CCl)c6c5cc(OP(=O)(O)O)c5ccccc65)cc4c3)cc2c1 ?
OUTPUT: Insoluble

INPUT: And the next one, CC(=O)SCCC(=O)Nc1ccc2[nH]c(C(=O)Nc3ccc4[nH]c(C(=O)N5C[C@@H](CCl)c6c5cc(O)c5ccccc65)cc4c3)cc2c1 ?
OUTPUT: Insoluble

INPUT: Also need CC(C)(S)CCC(=O)Nc1ccc2[nH]c(C(=O)Nc3ccc4[nH]c(C(=O)N5C[C@@H](CCl)c6c5cc(OP(=O)(O)O)c5ccccc65)cc4c3)cc2c1 , thanks.
OUTPUT: Insoluble
